Here the recorded pIC50 is given for each entry.
Biological target: MPTPA (Mycobacterium tuberculosis, UniProt P9WIA1)
Sequence (P9WIA1 whole entry): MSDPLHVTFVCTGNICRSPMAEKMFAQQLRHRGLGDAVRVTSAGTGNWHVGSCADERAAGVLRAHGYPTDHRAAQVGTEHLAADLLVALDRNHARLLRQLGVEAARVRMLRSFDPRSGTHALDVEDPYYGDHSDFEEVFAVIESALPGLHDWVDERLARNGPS
Assay: MtPTPA phosphatase inhibition, general phosphatase assay using para-nitrophenylphosphate
Format: biochemical
pIC50: −log10 of the molar value.

For orientation, consider the following solved cases.
molecule: CC1=C2CCC[C@H](O)[C@@]2(C)C/C(=C\c2ccc(C#CCCO)cc2)C1=O [Compound 55]
pIC50: 4.30 to 5.00
--
molecule: CCC/C=C1\C[C@@]2(C)C(=C(C)C1=O)CCC[C@@H]2O [Compound 32]
pIC50: > 5.00
--
molecule: C=C(C)C#Cc1ccc(/C=C2\C[C@@]3(C)C(=C(C)C2=O)CCC[C@@H]3O)cc1 [Compound 56]
pIC50: 4.30 to 5.00
--
molecule: COc1ccc(/C=C2\C[C@@]3(C)C(=C(C)C2=O)CCC[C@@H]3O)cc1 [Compound 24]
pIC50: 4.30 to 5.00

Now consider a different molecule.
In: Tell me pIC50 reported for CC1=C2CCC[C@H](O)[C@@]2(C)CC(=Cc2ccc(C#CCN(C)C)cc2)C1=O [Compound 396]
Out: 4.30 to 5.00
